# Tested on: PC-3 prostate
# test-description: NCI-60 one-dose screen, 48 h (100 = growth as untreated, 0 = no growth, -100 = all killed)
# test-context: 10 µM unless noted
About 83,000 compounds went through this panel and 20% of them were active in at least one assay; those are over-represented in the sample as a whole.
property: growth (%)
Give the value, in units of %, as a plain number.

Sample answers from the record:
compound	test-target	readout-unit	growth
Cc1cc2cn3c4ccc(O)cc4[nH]c(=O)c3c2cc1C	PC-3 prostate	%	37.5
CCCNC(=O)Oc1ccc(/C(=C(/CC)Cc2ccccc2)c2ccc(OCCN(CC)CC)cc2)cc1	PC-3 prostate	%	60.8
CCCCCCCCCCCCCCCC[n+]1cccc(C#N)c1	PC-3 prostate	%	25.1
O=C1Nc2c(c(=O)n(-c3ccccc3)c3ccccc23)C(c2ccc(Cl)cc2)N1 (stereo unspecified)	PC-3 prostate	%	105
COC(c1ccccc1)C(Br)C(=O)c1ccccc1 (stereo unspecified)	PC-3 prostate	%	91.3
CC(C)(C)c1cc(C[P+](c2ccc(Cl)cc2)(c2ccc(Cl)cc2)c2ccc(Cl)cc2)cc(C(C)(C)C)c1O	PC-3 prostate	%	70
CC(O)c1cc[cH-]c1.[Fe+2].c1cc[cH-]c1 (stereo unspecified)	PC-3 prostate	%	98.2
O=C1C(Br)=CC2C1C1C3CCC3C2(Br)C12OCCO2 (stereo unspecified)	PC-3 prostate	%	32

q: What value of measured growth is listed for `CCOC(=O)c1c(C)oc2ncnc(Nc3ccc(NC(=O)Nc4ccc(CC)cc4)cc3)c12` ?
a: 90.8

q: Also need `N#Cc1c2cccnc2c2nnc3cc(Cl)c(Cl)cc3n12` , thanks.
a: 18.4

q: Also need `NC(N)=N/N=C/c1cccc(Br)c1` , thanks.
a: 90.1

----------
# Tested on: SNB-75 CNS
# test-description: NCI-60 one-dose screen, 48 h (100 = growth as untreated, 0 = no growth, -100 = all killed)
# test-context: 10 µM unless noted
About 83,000 compounds went through this panel and 20% of them were active in at least one assay; those are over-represented in the sample as a whole.
property: growth (%)
Give the value, in units of %, as a plain number.

Sample answers from the record:
compound	growth [%]
CCCCCCCCc1ccc(CCC(N)(CO)CO)cc1	57.6
O=C(O)CS(=O)c1ccc(Cl)cc1 (configuration not stated)	103
CC(=O)c1ccc2c(c1)c1ccccc1n2C	82.5

q: What value of measured growth is listed for `CCOC1=C(Cl)C(=O)C(OCC)=C(Cl)C1=O` ?
a: 93.3

q: Also need CCN(CC)C(=O)C1(C)CCCC2(C)c3cc(OC(C)=O)ccc3CCC12 (configuration not stated) , thanks.
a: 80.9

q: Also need `C=CCNCCC#N` , thanks.
a: 79.1

q: Also need `CCC(C)(C)c1ccc(OCCCCCCN2CCN(c3ccc(C)c(Cl)c3)CC2)cc1` , thanks.
a: 92.2

----------
# System: SF-539 CNS
# test-description: NCI-60 one-dose screen, 48 h
# test-context: 10 µM unless noted
Compounds without any hit were thinned out: in the full panel of roughly 83,000, 20% have a hit. Calls of active or inactive are those of the source. How the source made its calls: active means growth percent below 10; inactive means the rest.
Respond only with the outcome that fits, drawn from active, inactive

q: Give the logged outcome of this assay for the following compound: `CCOc1ccc(N(C)c2ccc(/C=C/C3=[N+](C)c4ccccc4C3(C)C)cc2)cc1`
a: inactive

----------
# Test system: A549/ATCC NSCLC
# test-description: NCI-60 one-dose screen, 48 h
# test-context: 10 µM unless noted
# Description: Growth inhibition of the A549/ATCC human Non-Small Cell Lung tumor cell line is measured as a screen for anti-cancer activity. Cells are grown in 96 well plates and exposed to the test compound for 48 hours. Compounds are tested at a single concentration, which is 10^-5 M for most compounds. The reported endpoint is percent growth (GI% or GIPRCNT), where numbers from 0 - 100% represent growth inhibition, and numbers from -100% - 0 represent cell death. […]
Compounds without any hit were thinned out: in the full panel of roughly 83,000, 20% have a hit. Activity calls are given as the source filed them. The calls were made as follows: active = growth percent below 10; inactive = the rest.
Respond only with the outcome that fits, drawn from active, inactive

# count of solved cases: 10
compound	qualitative-label
N#CCCCCCCCCCCC#N	inactive
Nc1nc2cc(O)ccc2n2cc3c(F)cccc3c12	inactive
CC(C)(C)c1ccc(OCCOC(=O)CBr)cc1	inactive
CCCCN(CCC)CCCCCCCCCCN1CCCc2ccccc21	inactive
Cn1c2c(cc(S(=O)(=O)c3ccccc3)c1=O)CCc1c-2cnn1-c1ccc(Cl)cc1	active
CCCCn1c(Cc2ccc(OC)cc2)nc2cc(OC)c(OC)cc2c1=O	inactive
NNC(=O)CNc1ccc2ccccc2c1	inactive
CCCCN(CCCC)CC(O)CN(CC)CC (stereo not drawn)	inactive
c1cc(C2CCCCC2)ccc1OCCCCCCN1CCNCC1	inactive
[N-]=[N+]=Nc1ncc(-c2ccc(C(F)(F)F)cc2)c(NC2CCCCCC2)n1	inactive

q: Give the logged outcome of this assay for the following compound: `CC(=O)NNC(=O)c1sc(NC(C)=O)nc1C`
a: inactive

q: Also need `CC[C@H](Nc1ncnc2nc[nH]c12)c1nc2cccc(NCc3ccc(C(=O)NO)nc3)c2c(=O)n1-c1ccccc1` , thanks.
a: inactive

q: Also need `COc1cccc(-c2cc(-c3cc4ccccc4oc3=O)nc(N)n2)c1` , thanks.
a: inactive

q: Also need `c1ccc(-c2cn3ccnc3c(-c3ccc4ncn(C5CCCCC5)c4c3)n2)cc1` , thanks.
a: inactive

q: Also need CC(=O)OCC1O[C@@H](OC(C)=O)[C@@H](NC(=O)NS(=O)(=O)c2ccccc2)C(OC(C)=O)[C@@H]1OC(C)=O (stereo partly drawn) , thanks.
a: inactive

q: Also need `COC(=O)Nc1nc2ccc(C(=O)c3ccccc3N(C)C3COC3)cc2[nH]1` , thanks.
a: inactive

q: Also need `CCCCCCCCCCCCOC(=O)/C=C\C(=O)NC(N)=O` , thanks.
a: inactive

q: Also need `O=C(O)c1ccc(Br)nc1` , thanks.
a: inactive

q: Also need `COc1ccccc1C(=O)Nc1cccc(-c2cc(=O)c3c(OC)c(OC)c(OC)cc3o2)c1` , thanks.
a: inactive

q: Also need CC(O)CCC(C)[N+](=O)[O-] (stereo not drawn) , thanks.
a: inactive

q: Also need `CCCCCCCCc1ccc(CCC(N)(CO)CO)cc1` , thanks.
a: active

q: Also need `O=C(N/N=C/c1coc2ccccc2c1=O)c1cc2oc(-c3ccccc3)cc2[nH]1` , thanks.
a: inactive

q: Also need `CCCCCCN(CCCCCC)CCC(=O)Nc1ccc(S(=O)(=O)c2ccc(NC(=O)CCN(CCCCCC)CCCCCC)cc2)cc1` , thanks.
a: inactive

----------
# Tested on: LOX IMVI melanoma
# test-description: NCI-60 one-dose screen, 48 h (100 = growth as untreated, 0 = no growth, -100 = all killed)
# test-context: 10 µM unless noted
The panel holds about 83,000 compounds, 20% with a hit somewhere; the sample as a whole holds those more often. The source made the active and inactive calls. How the source made its calls: active means growth percent below 10; inactive means the rest.
Reported growth values for the following compounds.

Sample answers from the record:
compound	test-target	growth
CCCC(=O)NNc1[nH]c(-c2ccc(OC)cc2)cc1C(=O)OCC	LOX IMVI melanoma	103% (inactive)
COc1ccc(C2CC(=O)c3c(O)cc(OC4OC(COC5OC(C)C(O)C(O)C5O)C(O)C(O)C4O)cc3O2)cc1O (stereo not given)	LOX IMVI melanoma	107% (inactive)
COc1ccc2sc(-n3nc4nc5n(c(=O)c4c3N)-c3ccccc3Sc3ccccc3-5)nc2c1	LOX IMVI melanoma	79.8% (inactive)
O=C(Nc1cccc(Cn2c(=O)[nH]c3ccc(Oc4ncccn4)cc3c2=O)c1)c1ccc(Cl)cc1	LOX IMVI melanoma	66.5% (inactive)

q: What value of measured growth is listed for `COc1ccc(/C(=C(\c2ccccc2)[N+](=O)[O-])c2ccc(OCCN3CCCC3)cc2)cc1` ?
a: -20.1% (active)

----------
# Tested on: SK-OV-3 ovarian
# test-description: NCI-60 one-dose screen, 48 h
# test-context: 10 µM unless noted
# Experimental: Growth inhibition of the SK-OV-3 human tumor cell line is measured as a screen for anti-cancer activity. Cells are grown in 96 well plates and exposed to the test compound for 48 hours. Compounds are tested at a single concentration, which is 10^-5 M for most compounds. The reported endpoint is percent growth (GI% or GIPRCNT), where numbers from 0 - 100% represent growth inhibition, and numbers from -100% - 0 represent cell death. For example, a value of 40 represents 60% growth inhibition. […]
Compounds without any hit were thinned out: in the full panel of roughly 83,000, 20% have a hit. Calls of active or inactive are those of the source. Rule for the calls: active = growth percent below 10; inactive = the rest.
Respond only with the outcome that fits, drawn from class 1 = active, class 0 = inactive

# count of solved cases: 5
molecule	qualitative-label
CC1(C)C(O)NC(Cl)=C(C#N)C1(C#N)C#N (configuration not stated)	class 0
CC(C)OC(=O)Nn1cnc2ccccc21	class 0
Brc1ccc(-c2nc3ccccc3s2)cc1	class 0
OCCN1CCN(CC/C=C2/c3ccccc3Sc3ccc(C(F)(F)F)cc32)CC1	class 0
CC[n+]1c(C)ccc2cc(C)ccc21	class 0

q: Give the logged outcome of this assay for the following molecule: `COc1cccc(Cn2cc3c(c2)-c2oncc2CC3)c1`
a: class 1

q: Also need COc1cc(NC(C)CCCN)c2nc(C)ccc2c1OC (configuration not stated) , thanks.
a: class 0

# credit: PubChem BioAssay (NCI)
